test.settings: human gut metagenome, 24 h, 2 µM; note: call rule not given here;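 note: incubated anaerobically, with remaining drug quantified by LC–MS at nine sampling points across the 24 h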
observation.type: Bacterial Biotransformation

compound="CN(C)CCc1c[nH]c2ccc(CS(=O)(=O)N3CCCC3)cc12 [ALMOTRIPTAN]" measured_result="Compound NOT metabolized"
compound="CC(N)C12CC3CC(CC(C3)C1)C2 (stereo not drawn) [RIMANTADINE]" measured_result="Compound NOT metabolized"
compound="CCCCCNC(=N)N/N=C/c1c[nH]c2ccc(OC)cc12.O=C(O)/C=C\\C(=O)O [TEGASEROD MALEATE]" measured_result="Compound metabolized"
compound="COc1ccc(C(CN(C)C)C2(O)CCCCC2)cc1 (stereo not drawn) [VENLAFAXINE]" measured_result="Compound NOT metabolized"
compound="COc1cc2nc(N3CCN(C(=O)C4COc5ccccc5O4)CC3)nc(N)c2cc1OC.CS(=O)(=O)O (stereo not drawn) [DOXAZOSIN MESYLATE]" measured_result="Compound NOT metabolized"
compound="CCN(CC)CCOC(=O)C1(C2CCCCC2)CCCCC1 [DICYCLOMINE]" measured_result="Compound metabolized"

Problem: Which Bacterial Biotransformation is reported for this compound? CC#CCn1c(N2CCC[C@@H](N)C2)nc2c1c(=O)n(Cc1nc(C)c3ccccc3n1)c(=O)n2C [LINAGLIPTIN]
Result: Compound metabolized

Problem: Look at this compound and give its reported Bacterial Biotransformation. COc1cc2nc(N3CCN(C(=O)C4CCCO4)CC3)nc(N)c2cc1OC (stereo not drawn) [TERAZOSIN]
Result: Compound NOT metabolized

Problem: Bacterial Biotransformation for CCN(C)C(=O)Oc1cccc([C@H](C)N(C)C)c1.O=C(O)C(O)C(O)C(=O)O [RIVASTIGMINE TARTRATE] ?
Result: Compound NOT metabolized

Problem: Find the recorded Bacterial Biotransformation belonging to CCOc1ccc2nc(S(N)(=O)=O)sc2c1 [ETHOXZOLAMIDE] and report it.
Result: Compound NOT metabolized

Problem: Recorded Bacterial Biotransformation for CNCC[C@H](Oc1cccc2ccccc12)c1cccs1 [DULOXETINE] , please?
Result: Compound NOT metabolized

Problem: Fill in the blank: the reported Bacterial Biotransformation of Cc1cc(C)cc(OCC2CNC(=O)O2)c1 (stereo not drawn) [METAXALONE] is ____.
Result: Compound metabolized

Problem: Param item = Cc1cc2c(s1)Nc1ccccc1N=C2N1CCN(C)CC1 [OLANZAPINE] ; retrieve measured Bacterial Biotransformation.
Result: Compound NOT metabolized

Problem: Please look up its Bacterial Biotransformation: COc1ccc(/C=C/C(=O)Nc2ccccc2C(=O)O)cc1OC
Result: Compound NOT metabolized

Problem: Need Bacterial Biotransformation, item CN1CCC(=C2c3ccccc3CC(=O)c3sccc32)CC1.O=C(O)/C=C/C(=O)O [KETOTIFEN FUMARATE]
Result: Compound NOT metabolized

Problem: Bacterial Biotransformation lookup needed for Clc1cccc(Cl)c1N=C1NCCN1 [CLONIDINE] , thanks.
Result: Compound NOT metabolized

Problem: If you can, please state the reported Bacterial Biotransformation value of CC#C[C@]1(O)CC[C@H]2[C@@H]3CCC4=CC(=O)CCC4=C3[C@@H](c3ccc(N(C)C)cc3)C[C@@]21C [MIFEPRISTONE] .
Result: Compound metabolized

Problem: What Bacterial Biotransformation value was documented for this compound, COc1ccc(CN2CCNCC2)c(OC)c1OC.Cl.Cl [TRIMETAZIDINE DIHYDROCHLORIDE] ?
Result: Compound NOT metabolized

Problem: Could you share which Bacterial Biotransformation value was measured for CC[C@H](C)C(=O)O[C@H]1CCC=C2C=C[C@H](C)[C@H](CC[C@@H]3C[C@@H](O)CC(=O)O3)[C@H]21 [MEVASTATIN] ?
Result: Compound NOT metabolized

Problem: Data request, read-out Bacterial Biotransformation, for CC(=O)OCC(CCn1cnc2cnc(N)nc21)COC(C)=O [FAMCICLOVIR]
Result: Compound metabolized

Problem: Which Bacterial Biotransformation is listed for CCOC(=O)[C@H](CCc1ccccc1)N[C@@H](C)C(=O)N1Cc2ccccc2C[C@H]1C(=O)O ?
Result: Compound metabolized

Problem: What value of measured Bacterial Biotransformation is listed for COCCCC/C(=N\OCCN)c1ccc(C(F)(F)F)cc1.O=C(O)/C=C\C(=O)O [FLUVOXAMINE MALEATE] ?
Result: Compound NOT metabolized

Problem: # query: Bacterial Biotransformation of entry COC(=O)[C@H](c1ccccc1Cl)N1CCc2sccc2C1.O=S(=O)(O)O [CLOPIDOGREL BISULFATE]
Result: Compound NOT metabolized

Problem: Given the compound CC(=O)Nc1ccc(OC(C)=O)cc1 [DIACETAMATE] , what is its reported Bacterial Biotransformation?
Result: Compound metabolized

Problem: # input compound: CCCN1C[C@H](CSC)C[C@@H]2c3cccc4[nH]cc(c34)C[C@H]21.CS(=O)(=O)O [PERGOLIDE MESYLATE] ; wanted: its Bacterial Biotransformation
Result: Compound NOT metabolized

Problem: Quick one: Bacterial Biotransformation for C=C[C@H]1CN2CC[C@H]1C[C@H]2[C@H](O)c1ccnc2ccc(OC)cc12.C=C[C@H]1CN2CC[C@H]1C[C@H]2[C@H](O)c1ccnc2ccc(OC)cc12.O.O.O=S(=O)(O)O [QUININE SULFATE] ?
Result: Compound NOT metabolized

Problem: For O=C([O-])C[C@H](O)C[C@H](O)/C=C/c1c(C2CC2)nc2ccccc2c1-c1ccc(F)cc1.O=C([O-])C[C@H](O)C[C@H](O)/C=C/c1c(C2CC2)nc2ccccc2c1-c1ccc(F)cc1.[Ca+2] [PITAVASTATIN CALCIUM] , what is its reported Bacterial Biotransformation?
Result: Compound metabolized

Hey, just so you know, these numbers are from ChEMBL document CHEMBL5724914.
